Source listed as paper PMC9995496.

- Test system: PRKACA-PRKAR2A interaction (SmBiT-PRKACA / LgBiT-PRKAR2A), protein kinase A
- Parameters: NanoLuc complementation counter-screen in cell extract, PRKACA with PRKAR2A, loss of luminescence, detects NanoLuc interference
- condition-description: counter-screen for NanoLuc interference; 0.5 h, 20 µM; inhibitor
Square brackets hold non-standard residues; d marks the D form. Peptide text beside a SMILES is read from it. * marks the point of attachment. Sta = CC(C)C[C@H](N)[C@@H](O)CC(=O)O; Isovaleryl = CC(C)CC(=O)*
quantity-kind: Inh (PKA) (%)
Write the number in % without appending the unit.

Example results:
CC[C@@H](N)CNc1ccnc(-c2cc(-c3cnn(C)c3)ccc2O)n1: 18.6
CC(C)CC(=O)N[C@H](C(=O)N[C@H](C(=O)N[C@@H](CC(C)C)[C@@H](O)CC(=O)N[C@@H](C)C(=O)N[C@@H](CC(C)C)[C@@H](O)CC(=O)O)C(C)C)C(C)C [UM0118622:03, Pepstatin A] (Isovaleryl-VV[Sta]A[Sta]-OH): 1.204
CN(C)Cc1c(C(=O)NCCOc2ccc(C(=O)NO)cc2)oc2ccccc12: 0.8331
c1ccc(-c2[nH]ncc2-c2ccnc3ccccc23)nc1: 7.119
Cc1cc(-c2nc(-c3ccc(OC(F)(F)F)cc3)no2)nn1Cc1ccnc(N2CCN(C3CC3)CC2)c1: 5.354
C[C@H]1O[C@H](O[C@H]2[C@H](O)[C@@H](O)[C@@H](O[C@H]3[C@H](O)[C@@H](O)C(O)O[C@@H]3CO)O[C@@H]2CO)[C@H](O)[C@@H](O)[C@@H]1N[C@H]1C=C(CO)[C@@H](O)[C@H](O)[C@H]1O (stereo partly drawn): 2.661

The measured Inh (PKA) associated with "NC(=O)c1cccc2cn(-c3ccc([C@@H]4CCCNC4)cc3)nc12" reads 5.692

* * *

Entries and their Inh (PKA)
- System: PRKACA-PRKAR2A interaction (SmBiT-PRKACA / LgBiT-PRKAR2A), protein kinase A
- Parameters: NanoLuc complementation counter-screen in cell extract, PRKACA with PRKAR2A, loss of luminescence, detects NanoLuc interference
- condition-description: counter-screen for NanoLuc interference; 0.5 h, 20 µM; inhibitor
Structures can show the parent of a compound that is named as a salt.
Write the number in % without appending the unit.

Example results:
CN(C)CCCN1c2ccccc2CCc2ccccc21 [UM0118324:03, Imipramine (hydrochloride)]: 3.952
Cn1cc(-c2[nH]c3cc(NC(=O)[C@H](N)C4CCCCC4)cc4c3c2C=NNC4=O)cn1 [UM0142256:01, PF-477736]: 39.56

The measured Inh (PKA) associated with COc1cc2ncnc(Nc3cccc(Cl)c3)c2cc1OC [UM0044591:06, AG-1478] reads 16.45

The measured Inh (PKA) associated with COC(=O)[C@H](c1ccccc1Cl)N1CCc2sccc2C1 [UM0141874:01, Clopidogrel] reads 72.93

* * *

- assay-system: MeCP2-TBL1 interaction (MeCP2-SmBiT / TBL1-LgBiT) (Mus musculus)
- Construct: expressed in transfected cells; crude lysate used as a cell-free assay
- Sequence (Q9QXE7 166-527): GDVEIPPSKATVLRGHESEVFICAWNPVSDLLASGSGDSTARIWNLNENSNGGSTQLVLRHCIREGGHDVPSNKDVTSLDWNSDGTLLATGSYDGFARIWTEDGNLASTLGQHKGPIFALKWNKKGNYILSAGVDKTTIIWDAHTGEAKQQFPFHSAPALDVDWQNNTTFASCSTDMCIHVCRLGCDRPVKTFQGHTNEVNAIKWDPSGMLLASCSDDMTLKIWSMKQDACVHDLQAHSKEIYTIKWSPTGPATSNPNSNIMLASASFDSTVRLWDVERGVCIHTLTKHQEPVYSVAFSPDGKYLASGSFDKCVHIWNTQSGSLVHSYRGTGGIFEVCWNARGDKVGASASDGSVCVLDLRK
- assay-overview: MeCP2-TBL1 NanoLuc luciferase complementation assay (cell-free, extracts of transfected HEK293 cells);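 further: each compound tested at 20 µM final concentration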
- Format: binding, human
- condition-description: primary screen of the Asinex library, sheet "Sargen output Asinex library", one well per compound, Batch Ref. 1
Entries and their Inhibition percent
Write the number in % without appending the unit.

O=C(COc1ncnc2ccccc12)N1CCCCC1c1ncc(Cc2cccc(Cl)c2)o1 (stereo not drawn): 4.13
COc1ccccc1OCC(=O)N1[C@@H](Cc2ccccc2)[C@@H]2C[C@@]3(C)[C@H](CCC[C@@H]13)N2: 2.88
Cc1ccc2c(c1)OC(C)(C)[C@H]1CC3(CO[C@H]21)CN(C(=O)CCn1nc(O)ccc1=O)C3: -2.39

The measured Inhibition percent associated with "CC(C)(C)OC(=O)N1[C@@H](CNC(=O)CCc2c[nH]c3ccccc23)C[C@@]2(C)[C@@H](O)CCCC[C@@H]12" reads 3.52

The measured Inhibition percent associated with Cc1ccccc1Cc1cccc(C2CN(C(=O)c3nccc4ccccc34)CCO2)n1 (stereo not drawn) reads 6.97

The measured Inhibition percent associated with "COc1ccccc1CNC(=O)c1cn(C)nc1CC1CCN(C(=O)c2cccnc2)CC1" reads -3.87

The measured Inhibition percent associated with "COc1cccc([C@@H]2C[C@]3(C)NC(=O)CCCC[C@@H]3N2CC(=O)Nc2cccc(C)c2C)c1" reads 2.19

The measured Inhibition percent associated with "COc1ccccc1-c1ccc(CN2C[C@@H](c3ccccc3F)[C@@]3(CCCC(=O)N3)C2)cc1" reads 18.11

The measured Inhibition percent associated with CN1C(=O)C2(CCN(C(=O)C3(c4ccccc4)CCOCC3)CC2)CC1Cc1ccccc1 (stereo not drawn) reads 0.40

The measured Inhibition percent associated with "COc1ccc(C)c(NC(=O)CN2CC[C@@]3(NC(C)=O)CN(C(C)=O)[C@H](c4ccccc4)[C@H]3C2)c1" reads 1.43

The measured Inhibition percent associated with "Cc1cc2ncn(CCC(=O)N3[C@H](Cc4ccccc4)C[C@]4(C)NC(=O)CCC[C@H]34)c2cc1C" reads -1.89

The measured Inhibition percent associated with "COc1cccc(N2CCC(O)(CN3C[C@@H](c4cccc(F)c4)[C@@]4(CCCC(=O)N4)C3)CC2)c1" reads 2.32

* * *

Entries and their Inh (PKA)
- Tested on: PRKACA-PRKAR2A interaction (SmBiT-PRKACA / LgBiT-PRKAR2A), protein kinase A
- Parameters: NanoLuc complementation counter-screen in cell extract, PRKACA with PRKAR2A, loss of luminescence, detects NanoLuc interference
- condition-description: counter-screen for NanoLuc interference; 0.5 h, 20 µM; inhibitor
Write the number in % without appending the unit.

The measured Inh (PKA) associated with "CCN=C1N[C@@H]2[C@@H](O)[C@H](O)[C@@H](CO)O[C@@H]2S1" reads -0.5508

* * *

- System: PRKACA-PRKAR2A interaction (SmBiT-PRKACA / LgBiT-PRKAR2A), protein kinase A
- Set-up: NanoLuc complementation counter-screen in cell extract, PRKACA with PRKAR2A, loss of luminescence, detects NanoLuc interference
- condition-description: counter-screen for NanoLuc interference; 0.5 h, 20 µM; inhibitor
Counter-ions that a name gives are not always drawn.
Outcome: y for Inh (PKA) of at least 3%; n for anything lower.

Some entries whose results are on file:
CSc1ccc2c(c1)N(CCC1CCCCN1C)c1ccccc1S2 (centres unmarked) [UM0142076:01, Thioridazine HCl]: y
COc1ccc(C[C@@H]2c3cc(OC)c(OC)cc3CC[N@+]2(C)CCC(=O)OCCCCCOC(=O)CC[N@@+]2(C)CCc3cc(OC)c(OC)cc3[C@H]2Cc2ccc(OC)c(OC)c2)cc1OC [UM0142215:01, Cisatracurium Besylate]: n
Nc1ccccc1NC(=O)c1ccc(CNc2nccc(-c3cccnc3)n2)cc1: y
Nc1[nH]nc2nnc(-c3c(-c4ccccc4)nn4ccccc34)cc12: n

Has "O=C(Nc1ccccc1)Nc1ccc(-c2ccc(C(=O)[C@@H]3CCC[C@H]3C(=O)O)cc2)cc1" a recorded Inh (PKA) greater than or equal to 3%? y

Has "Cn1cnc2c(F)c(Nc3ccc(Br)cc3F)c(C(=O)NOCCO)cc21" a recorded Inh (PKA) greater than or equal to 3%? y

Has "COc1cc2c(NC3CCN(C(C)C)CC3)nc(C3CCCCC3)nc2cc1OCCCN1CCCC1" a recorded Inh (PKA) greater than or equal to 3%? n

Has COc1c(Cl)cc2c([nH]c3cnccc32)c1NC(=O)c1cccnc1C [UM0141589:01, MLN120B] a recorded Inh (PKA) greater than or equal to 3%? y

Has CN[C@H]1C[C@@H](N)[C@H](O)[C@@H](O[C@@H]2O[C@H](CO)[C@H](O)[C@@H]3OC4(O[C@H]23)O[C@H]([C@@H](N)CO)[C@H](O)[C@H](O)[C@H]4O)[C@@H]1O (some centres unmarked) a recorded Inh (PKA) greater than or equal to 3%? n

Has "O=C(CCCCCN1C(=O)c2cccc3cccc(c23)C1=O)NO" a recorded Inh (PKA) greater than or equal to 3%? y

Has Cc1cnc(Nc2ccc(F)cc2Cl)nc1-c1c[nH]c(C(=O)N[C@H](CO)c2cccc(Cl)c2)c1 [UM0141646:01, VX-11e] a recorded Inh (PKA) greater than or equal to 3%? y

Has "CCN(CC)C(=S)SSC(=S)N(CC)CC" a recorded Inh (PKA) greater than or equal to 3%? y

Has COc1cc(Oc2ccnc3cc(OC)c(OC)cc23)ccc1NC(=O)NC(C)c1nccs1 (centres unmarked) a recorded Inh (PKA) greater than or equal to 3%? y

Has "Cc1ccc(S(=O)(=O)OCC(=O)Nc2ccc(C(=O)O)c(O)c2)cc1" a recorded Inh (PKA) greater than or equal to 3%? n
